Cited source for all entries: ChEMBL document CHEMBL1201862

Test system: SNB-19
Test description: NCI tumour cell line growth inhibition, 48 h
The source made the active and inactive calls. Cut-off read from the data, not from the text of the source: active = GI50 up to about 1.1 µM and inactive = higher.
Readout name: GI50

Solved cases (4 shown):
* CCOC(=O)c1c(C)c2c(n1C)CCc1c[nH]nc1-2 | > 64.6 µM (inactive)
* NCCCc1nonc1C(=O)O | > 100 µM (inactive)
* CCOC(=O)c1sc2nc(SC)nc(Nc3ccc4c(c3)OCCO4)c2c1N | 17.6 µM (inactive)
* CN(CC(=O)O)Cc1c[nH]c2ccccc12 | > 100 µM (inactive)

GI50 reading for CN(C)c1nc2oc(-c3ccccc3)c(-c3ccccc3)c2c2nncn12 : > 100 µM (inactive)
